B1: TPR 5TU (parent)
chain: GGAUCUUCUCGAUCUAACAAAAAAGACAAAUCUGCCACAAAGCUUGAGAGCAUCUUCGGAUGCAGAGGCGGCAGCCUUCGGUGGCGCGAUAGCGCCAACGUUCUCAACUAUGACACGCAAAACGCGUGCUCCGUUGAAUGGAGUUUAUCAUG

Variants of: B1
Run description: polymerase ribozyme fitness, log enrichment relative to wild type (log ratio); higher = more active; in vitro selection for triplet polymerase activity
This sample holds only a part of the variants without activity.
Quantity: polymerase ribozyme fitness (log ratio)
The response must contain the number and no unit.

| Variant designation | Measured number |
| --- | --- |
| A39C G58C A97U A98C C125U | -3.95 |

Query A12G G59A A73G A91G yields polymerase ribozyme fitness (log ratio) of -2.71

Query A73U G126U yields polymerase ribozyme fitness (log ratio) of -0.661

Query C14G A22C A73U yields polymerase ribozyme fitness (log ratio) of -3.92

Query G50C G83A yields polymerase ribozyme fitness (log ratio) of -3.65

Query U53A C96G yields polymerase ribozyme fitness (log ratio) of -2.55

Query C57U C95A G136A yields polymerase ribozyme fitness (log ratio) of -0.1

Query U13A A23G C27U A28C C54U C85U C93U A115C C116G A121G A150C yields polymerase ribozyme fitness (log ratio) of -3.82

Query U53A G136A yields polymerase ribozyme fitness (log ratio) of -0.321

Query C14U G92C G136A yields polymerase ribozyme fitness (log ratio) of -2.51

Query A3U A37U U56A A97U yields polymerase ribozyme fitness (log ratio) of -3.82

Query C57G G84A yields polymerase ribozyme fitness (log ratio) of -0.518

Query C87G U90C yields polymerase ribozyme fitness (log ratio) of -4.07

Query A30G A39U A52G U55G yields polymerase ribozyme fitness (log ratio) of -4.08

Query A22U C54A yields polymerase ribozyme fitness (log ratio) of -0.932

Query C5G G136A yields polymerase ribozyme fitness (log ratio) of 0.0107

Query C93U C99U C114G yields polymerase ribozyme fitness (log ratio) of -3.73
